List of logP values.
assay: physchem

| molecule | logP |
| --- | --- |
| O=C(/C=C/c1ccc(O)c(O)c1)O[C@H]1[C@@H]2C=CO[C@@H](O[C@@H]3O[C@H](CO)[C@@H](O)[C@H](O)[C@H]3O)[C@@H]2[C@@]2(CO)O[C@@H]12 [verminoside] | ≤ -2 |
| CCCCCCCCCCCCCCCCCCCCCCCCCCCCC [nonacosane] | ≥ 5 |
| CCCCCCCCCCCCCCCCCCCC(O)CCCCCCCCC (stereo not drawn) [10-nonacosanol] | ≥ 5 |
| CCCCCCCCCCCCCCCCC(O)CCCCCCCCCCCC (stereo not drawn) [13-nonacosanol] | ≥ 5 |
| CC[C@H](/C=C/[C@@H](C)[C@H]1CC[C@H]2[C@@H]3CC=C4C[C@@H](O)CC[C@]4(C)[C@H]3CC[C@]12C)C(C)C [stigmasterol] | ≥ 5 |

Lab note: COc1ccc(-c2cc(=O)c3c(O)cc(O)cc3o2)cc1-c1c(O)cc(O)c2c(=O)cc(-c3ccc(O)cc3)oc12 [bilobetin] gave logP of ≥ 5

Lab note: CCCCCCCCCCCCCCCC(=O)OCC(COC(=O)CCCCCCCCCCCCCCC)OC(=O)CCCCCCCCCCCCCCC [tripalmitin] gave logP of ≥ 5

Lab note: COc1cc(O)c2c(=O)cc(-c3ccc(OC)c(-c4c(O)cc(O)c5c(=O)cc(-c6ccc(O)cc6)oc45)c3)oc2c1 [ginkgetin] gave logP of ≥ 5

Lab note: OCC1=C[C@@H](O)[C@@H]2C=CO[C@@H](O[C@@H]3O[C@H](CO)[C@@H](O)[C@H](O)[C@H]3O)[C@H]12 [aucubin] gave logP of ≤ -2

Lab note: COc1ccc(-c2cc(=O)c3c(O)cc(O)c(-c4cc(-c5cc(=O)c6c(O)cc(O)cc6o5)ccc4OC)c3o2)cc1 [isoginkgetin] gave logP of ≥ 5

Lab note: COc1cc(C(C)=O)ccc1O [Apocynin, 4-hydroxy-3-methoxyacetophenone] gave logP of 1.6

Lab note: OC[C@H]1O[C@@H](O[C@@H]2OC=C[C@H]3[C@H](O)[C@@H]4O[C@]4(CO)[C@@H]23)[C@H](O)[C@@H](O)[C@@H]1O [catalpol] gave logP of ≤ -2

Lab note: CCCCCCCCCCCCCCCCCC(O)CCCCCCCCC (stereo not drawn) [10-heptacosanol] gave logP of ≥ 5

Lab note: O=c1cc(-c2ccc(O)c(-c3c(O)cc(O)c4c(=O)cc(-c5ccc(O)cc5)oc34)c2)oc2cc(O)cc(O)c12 [amentoflavone] gave logP of ≥ 5

Lab note: COc1cc(C(C)=O)ccc1O[C@@H]1O[C@H](CO)[C@@H](O)[C@H](O)[C@H]1O [androsin] gave logP of -1.2
